In this section, each of the compounds is paired with its reported KIDNEY_R.
# Species on record: Rattus norvegicus
# EXPERIMENT: Open TG-GATES - Regimen: Daily Repeat
# Format: toxicity, organism-based, Sprague-Dawley
# Set-up: regimen Daily Repeat, gender Male, age 6 weeks
# CONDITION DETAILS: in vivo, po, 10 mg/kg, […], tissue Kidney, route gavage, dose level Low, time 7 day
Express it in g; write the number only.

Recorded KIDNEY_R, per entry:
[
  {
    "COMPOUND": "CN(C)CCCN1c2ccccc2CCc2ccccc21",
    "MEASUREMENT KIND": "KIDNEY_R",
    "UNITS TEXT": "g",
    "RECORDED VALUE": 1.1
  },
  {
    "COMPOUND": "CC1=C(/C=C/C(C)=C/C=C/C(C)=C/CO)C(C)(C)CCC1",
    "MEASUREMENT KIND": "KIDNEY_R",
    "UNITS TEXT": "g",
    "RECORDED VALUE": 1.1
  },
  {
    "COMPOUND": "CC(C)OC(=O)C(C)(C)Oc1ccc(C(=O)c2ccc(Cl)cc2)cc1 [FENOFIBRATE]",
    "MEASUREMENT KIND": "KIDNEY_R",
    "UNITS TEXT": "g",
    "RECORDED VALUE": 1.1
  }
]

Please find the next compound below.
-- ask Requested read-out: KIDNEY_R. Entry: CN(C)CCN(Cc1cccs1)c1ccccn1
-- reply 1
